# credit: the supplement of paper PMC9170038

Overview of recorded apparent KD of MS2 coat protein for various sequences
tested on: MS2 coat protein; test: apparent KD of MS2 coat protein; higher = weaker reporter binding; conditions: Eterna round: R107; input ligand: arginine 13.2 mM
Only the number, expressed in nM, is required.

Recorded apparent KD of MS2 coat protein, per entry:
>  <ordered residues>
UUUGGCGGCGAUCUGGGUUUACCAGAUCGGCGAGGACCGGUACGGCCGCCACUCGUGUUUCUUUGACAUGAGGAUCACCCAUGUA [whbob_SS_trypto A_f3]

>  <reading unit>
nM

>  <test result>
34.9

$$$$
>  <ordered residues>
GAACAAGGUUUCUUGUUCGGUCGCUGAGAAGGAGCGCGGUAACCCGCAGGUAGGUCGCUCAGAAAUACAUGAGGAUCACCCAUGU [Anaa]

>  <reading unit>
nM

>  <test result>
17.4

$$$$
>  <ordered residues>
UACAGCAGUACGGCCGCCACUCUAAGAUUGCGCGUUUAGGCCAUACAUGAGGAUCACCCAUGUCCGAGGACCGGGUACAGGAAUU [theeternabot_sameState_MS2_Trp_B_29]

>  <reading unit>
nM

>  <test result>
88.3

$$$$
>  <ordered residues>
AGCGUGCAUAGGAAAACUAUGUACGCAAAUCGAGGACCGGUACGGCCGCCACUCGUCCUCAACAUGAGGAUCACCCAUGUAAUAA [Mat - Exclusion - Trytophan A - D9]

>  <reading unit>
nM

>  <test result>
18.9

$$$$

Query string: Consider the sequence UGGUCCGUCGGAAGGAGCGACAUGAGGAUCACCCAUGUCUCCCGUUAUGGGAGUUCUUUAGGUCAGGUAGGUCGCCGGCGGGUCA [#1 Exclusion - Arginine B Attempt #12 (Inspired by Omei)] and give its measured apparent KD of MS2 coat protein.
Result string: 91.6

Query string: Item under review: UCACGAGGCCUGGAUACCAGCGACAUGAGGAUCACCCAUGUAUGAGGAUCAGCCAUGUUAUGCCCUUGGCAGCCACGAAGGUCAU [XZZMULLIN] . Reported apparent KD of MS2 coat protein?
Result string: 14.5
